Data credit: PubChem BioAssay

target: Torsin-1A-interacting protein 1 (Homo sapiens) (UniProt Q5JTV8)
Sequence (Q5JTV8 whole entry, looked up): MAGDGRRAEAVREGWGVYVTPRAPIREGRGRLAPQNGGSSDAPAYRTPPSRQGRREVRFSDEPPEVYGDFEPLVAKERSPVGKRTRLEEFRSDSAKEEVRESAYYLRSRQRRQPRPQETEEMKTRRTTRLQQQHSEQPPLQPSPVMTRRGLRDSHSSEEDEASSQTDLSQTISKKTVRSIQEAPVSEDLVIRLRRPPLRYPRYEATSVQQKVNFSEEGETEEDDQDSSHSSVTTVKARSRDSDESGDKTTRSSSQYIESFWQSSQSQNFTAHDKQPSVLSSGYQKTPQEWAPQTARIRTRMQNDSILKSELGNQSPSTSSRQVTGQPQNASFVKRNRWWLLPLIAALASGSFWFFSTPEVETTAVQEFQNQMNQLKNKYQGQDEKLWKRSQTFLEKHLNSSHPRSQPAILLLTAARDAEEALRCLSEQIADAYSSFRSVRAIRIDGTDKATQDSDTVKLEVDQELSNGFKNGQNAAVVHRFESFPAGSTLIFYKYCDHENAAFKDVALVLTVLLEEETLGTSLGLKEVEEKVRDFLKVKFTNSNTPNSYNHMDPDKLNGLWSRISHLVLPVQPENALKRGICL
method-description: LAP1 binders from COS7 cell lysate, primary screen, small-molecule microarray, 635/667 nm fluorescence (AID 1116)
experimental-setup: COS7-hLAP1 lysate binding, 635 nm fluorescence, higher = more signal
If the reported composite z-score equals or exceeds 0.4, assign satisfied. If not, assign not satisfied.

compound	classification
COC(=O)[C@H](C)NC(=O)CCC1CC(OC(=O)NCCc2ccc(F)cc2)CC2(CCCC(COC(=O)NCCc3ccc(Cl)cc3)O2)O1 (stereo partly specified)	satisfied
O=C1[C@H]2[C@H]3[C@H](O)[C@H](O)CC(=NO[C@@H]4O[C@H](CO)[C@@H](O)[C@H](O)[C@H]4O)[C@H]3CC[C@H]2C(=O)N1Cc1ccc2c(c1)OCO2	satisfied
COCCCNC(=O)[C@]1(CCC(=O)OC(C)(C)C)N=C(c2ccc(OCCCO)cc2)O[C@@H]1c1ccccc1N=[N+]=[N-]	satisfied
CCOC(=O)[C@H](Cc1ccccc1)NC(=O)CCC1CC(OC(=O)NCCc2ccc(F)cc2)CC2(CCCC(COC(=O)NCC(c3ccccc3)c3ccccc3)O2)O1 (stereo partly specified)	satisfied
CCCCCCc1nc(CCCc2cc3c(c(CCCCCC)n2)[Si](C(C)C)(C(C)C)O[C@H]3c2ccccc2)cc2c1[Si](C(C)C)(C(C)C)O[C@H]2c1ccccc1	not satisfied
C=C(/C(=C/C[C@@H](OC(=O)c1ccncc1)c1ccc(OCCO)cc1)c1cnc2ccccc2c1)C(C)C	satisfied
